experiment.notes: Oral bioavailability in mouse at 25 mg/kg
Type: ADME, organism-based
condition.summary: in vivo
Examples of molecules with documented bioavailability follow.

Here is how some molecules turned out for bioavailability.
CN1CC[C@H](c2cc(Nc3ccnc(N(C)C[C@H]4CC[C@H](N)CC4)n3)n[nH]2)C1=O | < 1%
CCN(C[C@H]1CC[C@H](N)CC1)c1nccc(Nc2cc([C@H]3CCN(C)C3=O)[nH]n2)n1 | < 1%

Now for another entry.
Task: I have this molecule here, CN1CC[C@H](c2cc(Nc3ccnc(N(C)Cc4ccc5[nH]cnc5c4Cl)n3)n[nH]2)C1=O , and I need its recorded bioavailability.
Result: < 1%

---

Reported Ki, Aurora kinase A (Homo sapiens, UniProt O14965).
Give the number; nM is assumed, so skip it.

Here is how some molecules turned out for Ki.
CC(=O)N(C)Cc1cc(Nc2ccnc(N(C)Cc3ccc4[nH]cnc4c3Cl)n2)n[nH]1 | 893
Clc1c(CNc2nccc(Nc3cc(C4CCCO4)[nH]n3)n2)ccc2[nH]cnc12 (racemic) | 25
COCC(C)c1cc(Nc2ccnc(N(C)Cc3ccc4[nH]cnc4c3Cl)n2)n[nH]1 (stereo not drawn) | 131

Now for another entry.
Task: API: value(readout= Ki, system= Aurora kinase A (Homo sapiens, UniProt O14965), query= CN1CC[C@H](c2cc(Nc3ccnc(N(C)C[C@H]4CC[C@H](N)CC4)n3)n[nH]2)C1=O )
Result: 3500

---

experiment.notes: AUC in mouse at 25 mg/kg, po
Format: ADME, organism-based
condition.summary: in vivo
reported.endpoint: AUC (µM·h)
Give the number; µM·h is assumed, so skip it.

Task: I have this compound here, CN1CC[C@H](c2cc(Nc3ccnc(N(C)Cc4ccc5[nH]cnc5c4Cl)n3)n[nH]2)C1=O , and I need its recorded AUC.
Result: 5.2

---

system: Serine/threonine-protein kinase PAK 4 (Homo sapiens, UniProt O96013)
Sequence (O96013 whole entry): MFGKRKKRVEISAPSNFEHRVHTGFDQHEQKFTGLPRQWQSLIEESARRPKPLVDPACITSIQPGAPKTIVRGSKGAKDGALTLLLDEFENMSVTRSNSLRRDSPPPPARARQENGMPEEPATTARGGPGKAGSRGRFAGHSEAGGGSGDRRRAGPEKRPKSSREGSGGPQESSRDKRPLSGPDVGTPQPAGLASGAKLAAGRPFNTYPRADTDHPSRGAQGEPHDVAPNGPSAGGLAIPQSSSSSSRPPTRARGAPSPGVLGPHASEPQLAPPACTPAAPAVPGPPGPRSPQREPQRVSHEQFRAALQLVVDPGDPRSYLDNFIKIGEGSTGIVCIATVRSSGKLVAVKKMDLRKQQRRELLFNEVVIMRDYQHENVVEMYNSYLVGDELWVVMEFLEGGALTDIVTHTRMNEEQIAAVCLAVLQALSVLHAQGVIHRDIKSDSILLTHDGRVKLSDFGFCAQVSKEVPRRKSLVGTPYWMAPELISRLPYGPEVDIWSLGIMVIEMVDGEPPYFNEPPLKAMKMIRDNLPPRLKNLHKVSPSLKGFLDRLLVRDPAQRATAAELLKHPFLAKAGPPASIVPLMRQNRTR
Note to self: use Satisfied only for Ki readings below 1000 nM; a reading exactly at 1000 nM still gets Not satisfied.

Answered cases to consult:
CN(Cc1ccc2[nH]cnc2c1Cl)c1nccc(Nc2cc(C3CC3)[nH]n2)n1 | Satisfied
CN1CC(C)(C)C(c2cc(Nc3ccnc(N(C)C[C@H]4CC[C@H](N)CC4)n3)n[nH]2)C1=O (stereo partly specified) | Not satisfied

Task: Consider CCN1CC[C@H](c2cc(Nc3ccnc(N(C)C[C@H]4CC[C@H](N)CC4)n3)n[nH]2)C1=O . Does its Ki lie strictly below 1000 nM?
Result: Satisfied

Task: Consider CN1CCCC(c2cc(Nc3ccnc(N(C)C[C@H]4CC[C@H](N)CC4)n3)n[nH]2)C1=O (mixture of isomers) . Does its Ki lie strictly below 1000 nM?
Result: Not satisfied

Task: Consider CCN(C[C@H]1CC[C@H](N)CC1)c1nccc(Nc2cc([C@H]3CCN(C)C3=O)[nH]n2)n1 . Does its Ki lie strictly below 1000 nM?
Result: Satisfied

Task: Consider CN1CC[C@H](c2cc(Nc3ccnc(NC[C@H]4CC[C@H](N)CC4)n3)n[nH]2)C1=O . Does its Ki lie strictly below 1000 nM?
Result: Not satisfied

---

Examples of compounds with documented clearance follow.
experiment.notes: Clearance in mouse at 0.3 mg/kg, iv
Format: ADME, organism-based
condition.summary: in vivo
Give the number; mL/min/kg is assumed, so skip it.

CCN(C[C@H]1CC[C@H](N)CC1)c1nccc(Nc2cc([C@H]3CCN(C)C3=O)[nH]n2)n1 | 33

Now for another entry.
Task: I have this compound here, CN1CC[C@H](c2cc(Nc3ccnc(N(C)Cc4ccc5[nH]cnc5c4Cl)n3)n[nH]2)C1=O , and I need its recorded clearance.
Result: 7

---

Examples of molecules with documented IC50 follow.
system: Serine/threonine-protein kinase PAK 1 (Homo sapiens, UniProt Q13153)
Sequence (Q13153 whole entry): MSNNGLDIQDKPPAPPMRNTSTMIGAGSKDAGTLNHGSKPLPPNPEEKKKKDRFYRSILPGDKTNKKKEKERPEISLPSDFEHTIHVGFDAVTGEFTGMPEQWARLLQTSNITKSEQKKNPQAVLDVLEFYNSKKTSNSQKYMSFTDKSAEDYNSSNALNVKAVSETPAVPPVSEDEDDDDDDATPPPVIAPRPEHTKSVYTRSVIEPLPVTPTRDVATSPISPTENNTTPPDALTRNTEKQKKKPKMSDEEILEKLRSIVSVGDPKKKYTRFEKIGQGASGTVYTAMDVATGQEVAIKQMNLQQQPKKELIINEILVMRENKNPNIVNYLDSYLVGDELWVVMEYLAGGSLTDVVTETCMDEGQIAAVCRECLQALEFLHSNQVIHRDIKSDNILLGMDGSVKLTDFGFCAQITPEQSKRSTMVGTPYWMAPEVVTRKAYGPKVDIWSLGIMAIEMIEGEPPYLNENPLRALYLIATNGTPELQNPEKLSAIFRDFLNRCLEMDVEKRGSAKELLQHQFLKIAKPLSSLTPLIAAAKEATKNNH
experiment.notes: Inhibition of PAK1 in human EBC1 cells assessed as inhibition of MEK phosphorylation at S298
Assay type: cell-based

Here is how some molecules turned out for IC50.
CN1CC[C@H](c2cc(Nc3ccnc(N(C)Cc4ccc5[nH]cnc5c4Cl)n3)n[nH]2)C1=O | 7.8 µM
CN1CC[C@H](c2cc(Nc3ccnc(N(C)C[C@H]4CC[C@H](N)CC4)n3)n[nH]2)C1=O | > 10 µM

Task: API: value(readout= IC50, system= Serine/threonine-protein kinase PAK 1 (Homo sapiens, UniProt Q13153), query= CCN(C[C@H]1CC[C@H](N)CC1)c1nccc(Nc2cc([C@H]3CCN(C)C3=O)[nH]n2)n1 )
Result: > 10 µM

---

Examples of molecules with documented logD follow.
experiment.notes: Lipophilicity, log D of the compound at pH 7.4
Type: physicochemical
condition.summary: buffer

CN1CC[C@H](c2cc(Nc3ccnc(N(C)Cc4ccc5[nH]cnc5c4Cl)n3)n[nH]2)C1=O | 1.8
CN1CC[C@H](c2cc(Nc3ccnc(N(C)C[C@H]4CC[C@H](N)CC4)n3)n[nH]2)C1=O | 0.96

Now for another entry.
Task: I have this molecule here, CCN(C[C@H]1CC[C@H](N)CC1)c1nccc(Nc2cc([C@H]3CCN(C)C3=O)[nH]n2)n1 , and I need its recorded logD.
Result: 0.12

---

Reported pKi, Serine/threonine-protein kinase PAK 1 (Homo sapiens).
Here pKi is given on a logarithmic scale as minus log10 of the concentration in mol/L.

Here is how some molecules turned out for pKi.
CN1CC[C@H](c2cc(Nc3ccnc(N(C)Cc4ccc5[nH]cnc5c4Cl)n3)n[nH]2)C1=O | 7.74
Clc1c(CNc2nccc(Nc3cc(C4CCCO4)[nH]n3)n2)ccc2[nH]cnc12 (racemic) | 7.60
CN(Cc1ccc2[nH]cnc2c1Cl)c1nccc(Nc2cc(C3CC3)[nH]n2)n1 | 8.30
CN1CCCC(c2cc(Nc3ccnc(N(C)C[C@H]4CC[C@H](N)CC4)n3)n[nH]2)C1=O (mixture of isomers) | 6.44

Now for another entry.
Task: I have this molecule here, CN(Cc1ccc2[nH]cnc2c1Cl)c1nccc(Nc2cc(C3CCC(=O)C3)[nH]n2)n1 (racemic) , and I need its recorded pKi.
Result: 7.80
